B1: FANCE (parent)
chain: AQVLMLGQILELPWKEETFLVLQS

# Variants of: B1
# Experimental Details: protein stability index of a GFP-peptide fusion (GPS, HEK-293T) (PSI 1-6); higher = more stable;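 further: lentivirally expressed fusions sorted by FACS into six bins by GFP to DsRed ratio, PSI derived from sequencing read proportions per bin multiplied by bin number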
# Measurement Conditions: c terminus: a fixed tail appended
Would you mind telling me the reported protein stability index of each entry?
A bare number is all that is needed in reply.

Identify measured protein stability index corresponding to `E17H`
3.21

Determine from records and report protein stability index for `S24N`
3.35

Query protein stability index for `I9H`
2.26

Answer with the recorded protein stability index of `L4D` only.
3.76

Read off the recorded protein stability index for `T18Q`
2.45

// fetch protein stability index given entry `G7S`
2.32

Give recorded protein stability index. `G7I`
3.43

Check the records and state protein stability index for `Q23C`
4.36

Consider the variant `A1K` . State its measured protein stability index.
1.56

Look up and state reported protein stability index for `E17N`
4.33

# return recorded protein stability index for input `W14Y`
2.51

Write down protein stability index measured for item `Q8A`
2.48

Give protein stability index for `W14G`
2.07

Note down protein stability index recorded for `F19P`
1.55

Give recorded protein stability index. `E16Q`
3.56

Recall and state the measured protein stability index for `K15N` .
1.94

Quote protein stability index reported for `L6I` please.
3.28

Give a short answer stating reported protein stability index for `E11C` .
5.4

Recall and state the measured protein stability index for `L4K` .
2.13

Tell me protein stability index reported for `V3R`
2.92

Return the recorded protein stability index value; entry: `E17L`
2.23

Identify measured protein stability index associated with `L4Y`
2.82

Name the recorded protein stability index of the item `T18F` in your answer.
3.58

Respond only with protein stability index recorded for `L20K`
1.91

Tell me protein stability index reported for `E16L`
3.01

Consider the variant `E11H` . State its measured protein stability index.
1.11

Entry `L20I` needs its protein stability index filled in; supply it.
2.31

Input `Q23M` , output reported protein stability index.
2.95

Answer with reported protein stability index of `S24L`
3.04

Using known records, supply protein stability index for `L20W`
2.87

Identify the reported protein stability index for the following entry. `L22W`
2.86

Specify measured protein stability index for `A1W` .
2.62

Quick one: give measured protein stability index for `L22N`
1.47

Report protein stability index for `K15P`
4.32

Answer with the recorded protein stability index of `Q8M` only.
2.39

Determine from records and report protein stability index for `A1C`
2.51

# return recorded protein stability index for input `L4W`
2.28

Consider the variant `L22T` . State its measured protein stability index.
1.61

Look up and report measured protein stability index for this entry: `T18G`
3.68

Given `P13H` , respond with its protein stability index.
2.19

Read the entry `T18A` and write its reported protein stability index.
1.7

Return protein stability index (reported value) for this variant: `V21G`
3.02

Give the measured protein stability index for `A1I`
3.1

Quick one: give measured protein stability index for `Q23G`
2.42

State its protein stability index for this variant: `K15Q`
1.47

Please report protein stability index for the following variant: `S24I`
5.17
